Reference for the values: patent US5330992A

Target: human topoisomerase II (Homo sapiens)
Construct: Topo II was purified from late log phase suspension cultures of HeLa WIS; endogenous in cells; host or cells: HeLa WIS suspension cultures, late log phase (enzyme purified from the cells)
Sequence (P11388 whole entry): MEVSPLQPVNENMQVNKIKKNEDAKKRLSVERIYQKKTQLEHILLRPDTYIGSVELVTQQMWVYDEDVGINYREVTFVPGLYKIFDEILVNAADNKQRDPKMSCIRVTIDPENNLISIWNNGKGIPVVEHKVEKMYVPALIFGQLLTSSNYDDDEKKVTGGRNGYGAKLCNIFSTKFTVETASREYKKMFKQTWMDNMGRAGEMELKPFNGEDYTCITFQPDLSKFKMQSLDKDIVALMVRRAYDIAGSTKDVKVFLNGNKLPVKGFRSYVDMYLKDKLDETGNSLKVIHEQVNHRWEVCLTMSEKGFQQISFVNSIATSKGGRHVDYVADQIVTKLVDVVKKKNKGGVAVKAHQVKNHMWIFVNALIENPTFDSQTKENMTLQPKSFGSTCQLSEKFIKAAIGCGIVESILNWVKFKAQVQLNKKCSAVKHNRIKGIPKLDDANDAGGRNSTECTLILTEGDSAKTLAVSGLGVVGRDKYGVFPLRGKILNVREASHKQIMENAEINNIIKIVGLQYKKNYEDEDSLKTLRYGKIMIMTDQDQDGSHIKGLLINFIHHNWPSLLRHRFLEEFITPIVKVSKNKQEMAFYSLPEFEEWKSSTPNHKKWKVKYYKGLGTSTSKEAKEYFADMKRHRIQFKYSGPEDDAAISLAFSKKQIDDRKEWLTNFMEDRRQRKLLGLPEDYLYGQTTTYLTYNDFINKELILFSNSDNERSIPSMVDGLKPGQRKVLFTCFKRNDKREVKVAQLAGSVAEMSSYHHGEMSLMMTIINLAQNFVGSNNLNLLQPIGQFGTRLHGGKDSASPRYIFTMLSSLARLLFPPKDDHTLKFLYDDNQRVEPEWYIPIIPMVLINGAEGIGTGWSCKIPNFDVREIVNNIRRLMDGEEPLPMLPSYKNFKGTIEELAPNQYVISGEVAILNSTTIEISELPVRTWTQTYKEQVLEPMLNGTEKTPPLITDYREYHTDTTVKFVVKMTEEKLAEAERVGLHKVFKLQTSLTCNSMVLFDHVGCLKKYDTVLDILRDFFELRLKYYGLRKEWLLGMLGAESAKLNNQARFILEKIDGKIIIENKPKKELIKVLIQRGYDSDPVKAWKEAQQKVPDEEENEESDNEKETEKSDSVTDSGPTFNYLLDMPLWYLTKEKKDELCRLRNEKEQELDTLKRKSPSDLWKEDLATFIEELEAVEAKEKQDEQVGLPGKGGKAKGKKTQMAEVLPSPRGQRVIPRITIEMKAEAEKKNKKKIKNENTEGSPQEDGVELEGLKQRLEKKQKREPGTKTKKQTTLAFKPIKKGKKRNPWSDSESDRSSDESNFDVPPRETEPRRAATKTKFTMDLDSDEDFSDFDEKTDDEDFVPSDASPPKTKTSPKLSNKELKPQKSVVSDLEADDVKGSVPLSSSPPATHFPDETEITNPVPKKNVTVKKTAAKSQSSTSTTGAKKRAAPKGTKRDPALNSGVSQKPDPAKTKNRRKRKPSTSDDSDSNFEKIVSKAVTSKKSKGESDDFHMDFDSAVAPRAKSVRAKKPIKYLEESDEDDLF
Assay: Mammalian Topoisomerase II Inhibition Assay (DNA-topo II complex formation)
Type: biochemical
Conditions: EC50 = concentration with activity equal to EC50 of reference mAMSA; read-out: TopoII Inh. EC50
Output 1 for records whose EC50 is lower than 10000 nM, -1 for records at or above 10000 nM.

(Q) Here's an entry: CC(=O)Nc1ccc(Cc2cn(C3CC3)c3c(F)c(-c4cc(C)nc(C)c4)c(F)cc3c2=O)cc1 [Example 19] . Is its EC50 below 10000 nM?
(A) -1

(Q) Here's an entry: Cc1cc(-c2c(F)cc3c(=O)c(Cc4ccccc4)cn(C4CC4)c3c2F)cc(C)n1 [Example 3] . Is its EC50 below 10000 nM?
(A) 1

(Q) Here's an entry: COc1ccc(OC)c(Cc2cn(C3CC3)c3c(F)c(-c4cc(C)nc(C)c4)c(F)cc3c2=O)c1 [Example 23] . Is its EC50 below 10000 nM?
(A) -1

(Q) Here's an entry: Cc1cc(-c2c(F)cc3c(=O)c(Cc4ccccc4O)cn(C4CC4)c3c2F)cc(C)n1 [Example 30] . Is its EC50 below 10000 nM?
(A) 1

(Q) Here's an entry: Cc1cc(-c2c(F)cc3c(=O)c(Cc4cccc(F)c4O)cn(C4CC4)c3c2F)cc(C)n1 [Example 37] . Is its EC50 below 10000 nM?
(A) 1

(Q) Here's an entry: Cc1cc(-c2c(F)cc3c(=O)c(Cc4c(O)cccc4O)cn(C4CC4)c3c2F)cc(C)n1 [Example 26] . Is its EC50 below 10000 nM?
(A) 1

(Q) Here's an entry: Cc1cc(-c2c(F)cc3c(=O)c(Cc4ccccn4)cn(C4CC4)c3c2F)cc(C)n1 [Example 4] . Is its EC50 below 10000 nM?
(A) -1

(Q) Here's an entry: Cc1cc(-c2c(F)cc3c(=O)c(Cc4cc(O)c(O)c(O)c4)cn(C4CC4)c3c2F)cc(C)n1 [Example 29] . Is its EC50 below 10000 nM?
(A) 1
